Please respond with reported CC50 for every item in the list.
# method-summary: Cytotoxicity against human HeLa cells assessed as reduction in cell viability by MTT assay
# Format: toxicity, cell-based

Use these answered entries as a reference point.
INSERT INTO assay_data (smiles_code, recorded_measurement) VALUES
  ('CC(C)(C)C(=O)Nc1nc(C(F)(F)F)c(-c2csc(Nc3cccc(C(F)(F)F)c3)n2)s1', '46 µM'),
  ('CC(C)(C)C(=O)Nc1nc(C(F)(F)F)c(-c2csc(Nc3cccc(C(F)(F)F)n3)n2)s1', '31.8 µM'),
  ('O=C(O)c1cc(Nc2nc(-c3sc(NC(=O)c4ccccc4)nc3C(F)(F)F)cs2)cc(C(F)(F)F)c1', '> 50 µM'),
  ('CC(C)(C)C(=O)Nc1nc(C(F)(F)F)c(-c2csc(Nc3ccc(O)c(C(=O)O)c3)n2)s1', '> 50 µM'),
  ('O=C(O)c1cc(Nc2nc(-c3sc(NC(=O)c4ccccc4)nc3C(F)(F)F)cs2)cc(C(=O)O)c1', '> 50 µM'),
  ('COC(=O)c1cc(Nc2nc(-c3sc(NC(=O)C(C)(C)C)nc3C(F)(F)F)cs2)cc(C(F)(F)F)c1', '47.3 µM'),
  ('CC(C)(C)C(=O)Nc1nc(C(F)(F)F)c(-c2csc(Nc3cc(C(=O)O)cc(C(=O)O)c3)n2)s1', '> 50 µM');

Now for another entry.
Give its CC50 value. Item: CC(C)(C)C(=O)Nc1nc(C(F)(F)F)c(-c2csc(Nc3cc(C(=O)O)cc(C(F)(F)F)c3)n2)s1
> 50 µM

---

# Test system: Streptococcus pyogenes
# method-summary: Bactericidal activity against Streptococcus pyogenes ATCC 12344 assessed as reduction in microbial growth measured after 18 hrs by CLSI based broth microdilution method
# Format: functional
parameter: MBC

Use these answered entries as a reference point.
INSERT INTO measurements (smiles_code, recorded_measurement) VALUES
  ('O=C(Nc1nc(C(F)(F)F)c(-c2csc(Nc3ccc(O)c(C(=O)O)c3)n2)s1)c1ccccc1', '32 µg/mL'),
  ('CC(C)(C)C(=O)Nc1nc(C(F)(F)F)c(-c2csc(Nc3cc(C(=O)O)cc(C(F)(F)F)c3)n2)s1', '4 µg/mL'),
  ('CC(C)(C)C(=O)Nc1nc(C(F)(F)F)c(-c2csc(Nc3cccc(C(F)(F)F)c3)n2)s1', '4 µg/mL'),
  ('CC(C)(C)C(=O)Nc1nc(C(F)(F)F)c(-c2csc(Nc3ccc(O)c(C(=O)O)c3)n2)s1', '> 32 µg/mL'),
  ('O=C(O)c1cc(Nc2nc(-c3sc(NC(=O)c4ccccc4)nc3C(F)(F)F)cs2)cc(C(F)(F)F)c1', '> 32 µg/mL');

Now for another entry.
Give its MBC value. Item: CC(C)(C)C(=O)Nc1nc(C(F)(F)F)c(-c2csc(Nc3cccc(C(F)(F)F)n3)n2)s1
8 µg/mL

---

Please respond with reported MIC for every item in the list.
# Tested on: Enterococcus faecium
# method-summary: Antibacterial activity against Vancomycin resistant Enterococcus faecium SI-1831 assessed as reduction in microbial growth measured after 18 hrs by CLSI based broth microdilution method
# Assay type: functional
Numbers only, in µg/mL.

Use these answered entries as a reference point.
INSERT INTO assay_data (smiles_code, recorded_measurement) VALUES
  ('CC(C)(C)C(=O)Nc1nc(C(F)(F)F)c(-c2csc(Nc3cccc(C(F)(F)F)c3)n2)s1', 2),
  ('O=C(Nc1nc(C(F)(F)F)c(-c2csc(Nc3ccc(O)c(C(=O)O)c3)n2)s1)c1ccccc1', 32);

Give its MIC value. Item: CC(C)(C)C(=O)Nc1nc(C(F)(F)F)c(-c2csc(Nc3cc(C(=O)O)cc(C(F)(F)F)c3)n2)s1
16

---

# Tested on: Escherichia coli
# method-summary: Synergistic antibacterial activity against Escherichia coli CCUGT incubated for 18 to 24 hrs in presence of colistin by broth microdilution method
# Format: functional
# condition-label: time 18-24 hrs
parameter: MAC

INSERT INTO measurements (smiles_code, recorded_measurement) VALUES
  ('CC(C)(C)C(=O)Nc1nc(C(F)(F)F)c(-c2csc(Nc3cc(C(=O)O)cc(C(F)(F)F)c3)n2)s1', '>64 µg/mL'),
  ('O=C(O)c1cc(Nc2nc(-c3sc(NC(=O)c4ccccc4)nc3C(F)(F)F)cs2)cc(C(F)(F)F)c1', '>64 µg/mL'),
  ('COC(=O)c1cc(Nc2nc(-c3sc(NC(=O)c4ccccc4)nc3C(F)(F)F)cs2)cc(C(F)(F)F)c1', '>64 µg/mL'),
  ('CC(C)(C)C(=O)Nc1nc(C(F)(F)F)c(-c2csc(Nc3cc(C(=O)O)cc(C(=O)O)c3)n2)s1', '>64 µg/mL'),
  ('O=C(O)c1cc(Nc2nc(-c3sc(NC(=O)c4ccccc4)nc3C(F)(F)F)cs2)cc(C(=O)O)c1', '>64 µg/mL'),
  ('CC(C)(C)C(=O)Nc1nc(C(F)(F)F)c(-c2csc(Nc3cccc(C(F)(F)F)c3)n2)s1', '4 µg/mL');

Dear colleague, could you please provide MAC for the molecules listed below?
1. O=C(Nc1nc(C(F)(F)F)c(-c2csc(Nc3cccc(C(F)(F)F)c3)n2)s1)c1ccccc1
2. CC(C)(C)C(=O)Nc1nc(C(F)(F)F)c(-c2csc(Nc3ccc(O)c(C(=O)O)c3)n2)s1
3. O=C(Nc1nc(C(F)(F)F)c(-c2csc(Nc3ccc(O)c(C(=O)O)c3)n2)s1)c1ccccc1
4. CC(C)(C)C(=O)Nc1nc(C(F)(F)F)c(-c2c[nH]c(Nc3cccc(C(F)(F)F)c3)n2)s1
5. COC(=O)c1cc(Nc2nc(-c3sc(NC(=O)C(C)(C)C)nc3C(F)(F)F)cs2)cc(C(F)(F)F)c1

["2 µg/mL", ">64 µg/mL", ">64 µg/mL", "32 µg/mL", ">64 µg/mL"]

Reported MAC for Escherichia coli, given CC(C)(C)C(=O)Nc1nc(C(F)(F)F)c(-c2csc(Nc3cccc(C(F)(F)F)n3)n2)s1 ?
2 µg/mL

---

# System: Staphylococcus aureus
# method-summary: Bactericidal activity against methicillin-resistant Staphylococcus aureus ATCC 43300 assessed as reduction in microbial growth measured after 18 hrs by CLSI based broth microdilution method
# Format: functional
parameter: MBC

Use these answered entries as a reference point.
INSERT INTO results (smiles_code, system_under_test, recorded_measurement) VALUES
  ('CC(C)(C)C(=O)Nc1nc(C(F)(F)F)c(-c2csc(Nc3cc(C(=O)O)cc(C(F)(F)F)c3)n2)s1', 'Staphylococcus aureus', '> 64 µg/mL'),
  ('CC(C)(C)C(=O)Nc1nc(C(F)(F)F)c(-c2csc(Nc3cccc(C(F)(F)F)n3)n2)s1', 'Staphylococcus aureus', '> 64 µg/mL'),
  ('O=C(O)c1cc(Nc2nc(-c3sc(NC(=O)c4ccccc4)nc3C(F)(F)F)cs2)cc(C(F)(F)F)c1', 'Staphylococcus aureus', '> 64 µg/mL'),
  ('CC(C)(C)C(=O)Nc1nc(C(F)(F)F)c(-c2csc(Nc3cccc(C(F)(F)F)c3)n2)s1', 'Staphylococcus aureus', '32 µg/mL');

Now for another entry.
Give its MBC value. Item: O=C(Nc1nc(C(F)(F)F)c(-c2csc(Nc3ccc(O)c(C(=O)O)c3)n2)s1)c1ccccc1
> 64 µg/mL

---

# Tested on: Bacillus subtilis
# method-summary: Bactericidal activity against Bacillus subtilis ATCC 6633 assessed as reduction in microbial growth measured after 18 hrs by CLSI based broth microdilution method
# Assay type: functional
parameter: MBC (µg/mL)
One number for each entry, in µg/mL.

INSERT INTO measurements (smiles_code, unit_symbol, recorded_measurement) VALUES
  ('CC(C)(C)C(=O)Nc1nc(C(F)(F)F)c(-c2csc(Nc3cc(C(=O)O)cc(C(F)(F)F)c3)n2)s1', 'µg/mL', 16),
  ('CC(C)(C)C(=O)Nc1nc(C(F)(F)F)c(-c2csc(Nc3cccc(C(F)(F)F)n3)n2)s1', 'µg/mL', 16);

Dear colleague, could you please provide MBC for the molecules listed below?
1. CC(C)(C)C(=O)Nc1nc(C(F)(F)F)c(-c2csc(Nc3cccc(C(F)(F)F)c3)n2)s1
2. O=C(O)c1cc(Nc2nc(-c3sc(NC(=O)c4ccccc4)nc3C(F)(F)F)cs2)cc(C(F)(F)F)c1

8
32

---

# Tested on: Enterococcus faecium
# method-summary: Antibacterial activity against Vancomycin resistant Enterococcus faecium SI-3856B assessed as reduction in microbial growth measured after 18 hrs by CLSI based broth microdilution method
# Type: functional
Please respond with reported MIC for every item in the list.
Give bare numbers, in µg/mL.

Use these answered entries as a reference point.
INSERT INTO assay_data (smiles_code, recorded_measurement) VALUES
  ('CC(C)(C)C(=O)Nc1nc(C(F)(F)F)c(-c2csc(Nc3cc(C(=O)O)cc(C(F)(F)F)c3)n2)s1', 32),
  ('O=C(Nc1nc(C(F)(F)F)c(-c2csc(Nc3ccc(O)c(C(=O)O)c3)n2)s1)c1ccccc1', 32);

Now for another entry.
Give its MIC value. Item: CC(C)(C)C(=O)Nc1nc(C(F)(F)F)c(-c2csc(Nc3cccc(C(F)(F)F)c3)n2)s1
4

Just for reference, ChEMBL document CHEMBL5532695 is where these values come from.
